Taken from PubChem BioAssay AID2060501.

Test system: 282377-053-R-J1-PDC complex spheroids, viability
Test: Anticancer human tumor 282377-053-R-J1-PDC patient-derived colon adenocarcinoma cell line growth inhibition [GQUAD]
Settings: curve of first compound; second compound 1 µM
For each of the compounds below, state its IC50.

Req: Report IC50 for C=CCn1c(=O)c2cnc(Nc3ccc(N4CCN(C)CC4)cc3)nc2n1-c1cccc(C(C)(C)O)n1 + Cc1cnc(CNC(=O)c2c(=O)c3ccc(N4CCCN(C)CC4)nc3n3c2sc2ccccc23)cn1 tested on 282377-053-R-J1-PDC complex spheroids, viability.
Resp: 0.651 µM

Req: // next record C#Cc1c(F)ccc2cc(O)cc(-c3ncc4c(N5CC6CCC(C5)N6)nc(OCC56CCCN5CC(F)C6)nc4c3F)c12 (stereo unspecified) + Cc1[nH]c2ccc(F)cc2c1-c1nc2c3cccnc3c3ncccc3c2[nH]1
Resp: 0.825 µM

Req: // next record C=CC(=O)N1CCN(c2nc(=O)n(-c3c(C)ccnc3C(C)C)c3nc(-c4c(O)cccc4F)c(F)cc23)C(C)C1 (stereo unspecified) + Cc1[nH]c2ccc(F)cc2c1-c1nc2c3cccnc3c3ncccc3c2[nH]1
Resp: > 10 µM

Req: // next record COc1ncnc(C2CC2)c1-c1ncc2cnn(Cc3ccc(-c4nc(C(F)(F)F)cn4C(C)C)cc3)c2n1 + Cc1[nH]c2ccc(F)cc2c1-c1nc2c3cccnc3c3ncccc3c2[nH]1
Resp: 5.46 µM

Req: // next record Nc1ccn(C2OC(CO)C(O)C2(F)F)c(=O)n1 (stereo unspecified) + CN(C)c1ccc(Nc2c3ccc(NC(=O)CCN4CCCC4)cc3nc3cc(NC(=O)CCN4CCCC4)ccc23)cc1
Resp: 0.271 µM

Req: // next record Cc1cccc(N(C)C(=O)C2C(O)CCN2c2nc(C)cc(C(F)(F)F)c2C#N)c1 (stereo unspecified) + CN(C)c1ccc(Nc2c3ccc(NC(=O)CCN4CCCC4)cc3nc3cc(NC(=O)CCN4CCCC4)ccc23)cc1
Resp: > 10 µM

Req: // next record Cc1cccc(N(C)C(=O)C2C(O)CCN2c2nc(C)cc(C(F)(F)F)c2C#N)c1 (stereo unspecified) + Cc1[nH]c2ccc(F)cc2c1-c1nc2c3cccnc3c3ncccc3c2[nH]1
Resp: > 10 µM

Req: // next record C=CC(=O)N1CCN(c2nc(=O)n(-c3c(C)ccnc3C(C)C)c3nc(-c4c(O)cccc4F)c(F)cc23)C(C)C1 (stereo unspecified) + Cc1cnc(CNC(=O)c2c(=O)c3ccc(N4CCCN(C)CC4)nc3n3c2sc2ccccc23)cn1
Resp: > 10 µM

Req: // next record O=c1[nH]cc(F)c(=O)[nH]1 + Cc1cnc(CNC(=O)c2c(=O)c3ccc(N4CCCN(C)CC4)nc3n3c2sc2ccccc23)cn1
Resp: > 10 µM

Req: // next record CC[C@@]1(O)C(=O)OCc2c1cc1n(c2=O)Cc2cc3c(CN(C)C)c(O)ccc3nc2-1 + Cc1[nH]c2ccc(F)cc2c1-c1nc2c3cccnc3c3ncccc3c2[nH]1
Resp: > 0.316 µM

Req: // next record CC(C)(O)C1CCC(Nc2ccc3ncc(-c4cccc(C(F)(F)F)c4)n3n2)CC1 (stereo unspecified) + Cc1[nH]c2ccc(F)cc2c1-c1nc2c3cccnc3c3ncccc3c2[nH]1
Resp: > 10 µM

---

For each of the compounds below, state its viability, T/C.
System: 282377-053-R-J1-PDC complex spheroids, viability
Experiment: Anticancer human tumor 282377-053-R-J1-PDC cell line growth inhibition [GQUAD];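 further: spheroids exposed to compounds for 7 days before readout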;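 on viability, T/C: percent of vehicle DMSO control viability with 100% = untreated-like growth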
Details: second compound 0.0316 µM; first compound 0.316 µM; stronger effect = lower value

Req: Suppose we examine the compound CC1COCCN1c1cc(C2(S(C)(=N)=O)CC2)nc(-c2ccnc3[nH]ccc23)n1 (stereo unspecified) + Cc1[nH]c2ccc(F)cc2c1-c1nc2c3cccnc3c3ncccc3c2[nH]1 ; what viability, T/C value has been reported?
Resp: 101%

Req: // next record COc1cc(C2c3cc4c(cc3C(OC3OC5COC(C)OC5C(O)C3O)C3COC(=O)C23)OCO4)cc(OC)c1O (stereo unspecified) + Cc1cnc(CNC(=O)c2c(=O)c3ccc(N4CCCN(C)CC4)nc3n3c2sc2ccccc23)cn1
Resp: 126%

Req: // next record Cc1[nH]c2ccccc2c1CCNCc1ccc(/C=C/C(=O)NO)cc1 + Cc1[nH]c2ccc(F)cc2c1-c1nc2c3cccnc3c3ncccc3c2[nH]1
Resp: 96.8%

Req: // next record O=c1[nH]cc(F)c(=O)[nH]1 + Cc1cnc(CNC(=O)c2c(=O)c3ccc(N4CCCN(C)CC4)nc3n3c2sc2ccccc23)cn1
Resp: 114%

Req: // next record O=C(c1cc(Cc2n[nH]c(=O)c3ccccc23)ccc1F)N1CCN(C(=O)C2CC2)CC1 + Cc1cnc(CNC(=O)c2c(=O)c3ccc(N4CCCN(C)CC4)nc3n3c2sc2ccccc23)cn1
Resp: 140%

Req: // next record CCCS(=O)(=O)Nc1ccc(F)c(C(=O)c2c[nH]c3ncc(-c4ccc(Cl)cc4)cc23)c1F + Cc1cnc(CNC(=O)c2c(=O)c3ccc(N4CCCN(C)CC4)nc3n3c2sc2ccccc23)cn1
Resp: 72%
